Test: soluble on expression in E. coli; label from the status in PepcDB or PDB records
experimental_endpoint: soluble on expression in E. coli

Consider the following illustrative entries.
seq_text: MATIRTKFRSSSAEGREGALYYQVIHNRVVRQISTGYKLFASEWDQRSEAVIPCQHPAGMERDNYLLSVGERIRRDKIRLEKAIRTLSQSGPFTADDIVIRFHDSGQEPSFNDYIRQQIVRLKRLGKIRTSETYTAALKSFSSFMKGSDILFGELSSDLLMEYEAYLKNRGNSPNTISFYMRILKAVYNRAVENGLTGQRNLFKSVYTGVEKTLKRAIHLNDIRRIKRLDLSLKPHLDFARDMFLFCFYTRGMSFVDMAYLKKGDIANGILTYRRKKTGQQLFIRWEKCMQEIIKLFCLSVQDFKVVH
soluble on expression in E. coli: not soluble

seq_text: MNDTKITGGDLYDLWRVANINMPNVQAVYADACNVIHEINVANEDKFGRAHPGWAALGQIYEQCLFLTEGSLFSVAHYIDKAVKEFKEVDAEAARDLEAIFKNPNDHNPDDELTGDEKPKDVEVPNWWND
soluble on expression in E. coli: not soluble

seq_text: MAKVTGTKVITNQVRLSFVHVLEPHAMEEGQEKKYSCMLIIPKDDKETLKAMKEAIKTAYEGAKGDKLKGVKFERLKTTLRDGDEEMDTEERPEFENAMFINVSSKTKPQVVKREDGVLVKTDDPDEVYSGVYAIASINFYAYSTAGNKGVTAGLNNILTLCKGDFLGGRANAESDFGDLEWEDEEDDMFS
soluble on expression in E. coli: not soluble

seq_text: GSPPAQLSVHTVSWNSGHERAPTNLEELLGLNSGETPDVIAVAVQGFGFQTDKPQQGPACVKNFQSLLTSKGYTKLKNTITETMGLTVYCLEKHLDQNTLKNETIIVTVDDQKKSGGIVTSFTIYNKRFSFTTSRMSDEDVTSTNTKYAYDTRLDYSKKDDPSDFLFWIGDLNVRVETNATHAKSLVDQNNIDGLMAFDQLKKAKEQKLFDGWTEPQVTFKPTYKFKPNTDEYDLSATPSWTDRALYKSGTGKTIQPLSYNSLTNYKQTEHRPVLAKFRVTL
soluble on expression in E. coli: soluble

So, MGHHHHHHSHMYAFTLHPNAQHRRTRIGTSVDLSCLLCFRIGGFYALSPYPGLRLISLNMNFCSRENFWLLINSTDPAGQLQWLVGELQAAEDRGDKVRASSGNTVVLGDKQAPVELEHLWAQKFYFPGIPNKCSLGIQLMVTVESLHSVPLSLARAAWTPGCPDYHP ? Its soluble on expression in E. coli was not soluble

Just so you know, measured soluble on expression in E. coli for MSLSKDEELLQNYCSILFTYKTIGISNLHLYYFRETEIKSLKQLINAEFAILQTCNRVEIYLYSDTNTLKEVNKIIQYLNNIHNEPIGNQARVLCGKDAAKHLFLVASGADSLSIGEYEILSQIRSTIDMFKKLGFSGKYLQIFFERAIKVGRKVREETSISKGKVGIYSLAIDEAKKRFNDFYDRRILVIGAGEMAQKITSMLHNEGAKDVTIMNRTIEKAKQLALKFGYNYEKLDLDKLGNFDVAFISIYHENLRLENKWNTLIVDITVPPLFTGNNVITLEELERISNLNFKAREEELAKINKLVEDGINELLYDYKKEIYTEFMSKIMKREGHHHHHH came out at soluble
